# experimental system: hSTING R232 (Homo sapiens, UniProt Q86WV6, H232R)
# Construct: host or cells: 293T-Dual hSTING R232 cells
# Sequence (Q86WV6 whole entry H232R): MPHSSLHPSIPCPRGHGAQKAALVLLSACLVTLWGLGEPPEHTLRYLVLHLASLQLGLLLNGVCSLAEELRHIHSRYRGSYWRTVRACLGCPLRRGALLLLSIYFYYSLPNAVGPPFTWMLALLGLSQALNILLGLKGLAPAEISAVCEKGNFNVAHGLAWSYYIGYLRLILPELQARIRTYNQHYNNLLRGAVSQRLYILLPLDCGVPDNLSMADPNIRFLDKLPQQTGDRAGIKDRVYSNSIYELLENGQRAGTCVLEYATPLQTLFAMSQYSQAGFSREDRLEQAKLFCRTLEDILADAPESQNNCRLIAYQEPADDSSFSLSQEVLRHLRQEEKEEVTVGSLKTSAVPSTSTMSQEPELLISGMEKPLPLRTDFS
# assay remarks: 293T-Dual hSTING R232 cells, interferon-β expression (Quanti-Luc)
# Assay type: cell-based
# measurement setup: 293T-Dual hSTING R232 cell line, 24 h, read-out: IFNb EC50
measurement type: pEC50
Formally, pEC50 is defined as -log10 of the concentration c, with c in mol/L.

Completed entries (count: 5):
compound: BP1(=O)OCC2O[C@@H](n3cnc4c(N)ncnc43)[C@H](F)[C@@H]2OP(=O)(S)OC[C@H]2O[C@@H](n3cnc4c(=O)[nH]c(N)nc43)[C@H](F)[C@@H]2O1 (single isomer, unassigned) [Compound C4]
pEC50: 6.15

compound: BP1(=O)OCC2O[C@@H](n3cnc4c(N)ncnc43)[C@H](F)[C@@H]2OP(=O)(S)OC[C@H]2O[C@@H](n3cnc4c(=O)[nH]c(N)nc43)[C@H](F)[C@@H]2O1 (single isomer, unassigned) [Compound C3]
pEC50: 6.80

compound: BP1(=O)OCC2O[C@@H](n3cnc4c(N)ncnc43)[C@H](F)[C@@H]2OP(=O)(S)OC[C@H]2O[C@@H](n3cnc4c(=O)[nH]c(N)nc43)[C@H](F)[C@@H]2O1 (single isomer, unassigned) [Compound C1]
pEC50: 4.12

compound: BP1(=O)OC[C@H]2O[C@@H](n3cnc4c(=O)[nH]c(N)nc43)[C@H](F)[C@@H]2OP(=O)(O)OCC2O[C@@H](n3cnc4c(N)ncnc43)[C@H](F)[C@@H]2O1 (stereo partly drawn) [Compound G1]
pEC50: 6.04

compound: BP1(=O)OC[C@H]2O[C@@H](n3cnc4c(=O)[nH]c(N)nc43)[C@H](F)[C@@H]2OP(=O)(S)OCC2O[C@@H](n3cnc4c(N)ncnc43)[C@H](F)[C@@H]2O1 (single isomer, unassigned) [Compound B2]
pEC50: 4.54

pEC50 reading for BP1(=O)OC[C@H]2O[C@@H](n3cnc4c(N)ncnc43)[C@H](F)[C@@H]2OP(=O)(S)OC[C@H]2O[C@@H](n3cnc4c(N)ncnc43)[C@H](O1)C2F (stereo partly drawn) [Mixtures of H1, H2, H3, and H4] : 4.07

pEC50 reading for BP1(=O)OC[C@H]2O[C@@H](n3cnc4c(=O)[nH]c(N)nc43)[C@H](F)[C@@H]2OP(=O)(S)OCC2O[C@@H](n3cnc4c(N)ncnc43)[C@H](F)[C@@H]2O1 (single isomer, unassigned) [Compound B1] : 4.43

pEC50 reading for BP1(=O)OC[C@H]2O[C@@H](n3cnc4c(=O)[nH]c(N)nc43)[C@H](F)[C@@H]2OP(=O)(S)OCC2O[C@@H](n3cnc4c(N)ncnc43)[C@H](F)[C@@H]2O1 (single isomer, unassigned) [Compound B3] : 5.53

pEC50 reading for [BH3-][P+]1(O)OCC2OC(n3cnc4c(N)ncnc43)C(OP(=O)(O)OCC3OC(n4cnc5c(N)ncnc54)C(F)C3O1)C2F (single isomer, unassigned) [Compound K1] : 5.64
